# SUBJECT_OF_TEST: T1, recombinant human Ang2-FLD (human, UniProt O15123 275-496, limits assumed)
# T1 construct: domain: FLD; not used
# T1 sequence (looked up): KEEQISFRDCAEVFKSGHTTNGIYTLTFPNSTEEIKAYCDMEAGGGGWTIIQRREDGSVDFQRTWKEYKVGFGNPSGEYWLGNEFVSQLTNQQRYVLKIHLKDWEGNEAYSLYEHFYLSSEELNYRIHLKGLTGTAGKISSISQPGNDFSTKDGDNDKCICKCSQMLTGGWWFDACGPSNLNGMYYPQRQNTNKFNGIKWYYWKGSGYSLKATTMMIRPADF
# TEST: ProteOn off-rate assay, periplasmic extract 1:10 over coated human Ang2-FLD
ENDPOINT_NAME: koff (s⁻¹)
State the answer as a number, implicitly in s⁻¹.

Provide measured koff value, entry: VHH 64F07 (VHH, periplasmic extract; not shown: C-terminal c-myc tag and His6 tag) VHH: QVQLVESGGGLVQAGGSLRLSCAVSGFTLDDYAIGWFRQAPGKEREGVSSIRDNDGSTYYADSVKGRFTISSDNDQNTVYLQMNSLKSEDTAVYYCAAVPAGRLRFGEQWYPIYEYDAWGQGTLVTVSS
0.00012

This collection of values is drawn from patent US20230203146A1.
